Origin of values: PubChem BioAssay AID602393

reporter increase by entry:
assay: raisers of Bmi1 knock-in reporter signal – mouse ES cells, Bmi1 luciferase knock-in, single point, esBAF inhibitor project, primary screen (AID 602393); conditions: 24 h, at 12.5 µM, active compounds read high;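 further: 0% = median of the plate's neutral control wells and 100% = double that signal; a rise in the Bmi1 reporter signal indicates esBAF inhibition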
About 7,000 (2%) of roughly 350,000 compounds were called active. Only a selection was taken, and actives are over-represented in it overall.
Please respond with the number in % and leave the unit unwritten.

Example compounds with recorded reporter increase:
* COC(=O)[C@H]1[C@H](CO)[C@H]2Cn3c(cccc3=O)[C@H]2N1CC1CC1 | 0.469
* CC(C)(C)c1ccc(OC(=O)N2CCCCC2)cc1 | 91.1
* O=C(NC1CCCCC1)N1Cc2cc(N3CCCCC3)ccc2-n2nncc2C1 | 5.49
* COc1ccc2c(c1)NP(=S)(c1ccccc1)N2 (centres undefined) | 43.7
* CSCCC(c1nnnn1C(C)(C)C)N1CCC(n2c(=O)[nH]c3ccccc32)CC1 (centres undefined) | -9.76

// lookup reporter increase for COC(=O)C1=C(c2ccc(OCc3ccccc3)cc2)C[C@@H]2CC[C@H]1N2C(=O)NCc1cccc(F)c1 3.43

Next entry: O=P(OC1=CCCCC1)(c1ccccc1)c1ccccc1 -0.107

Next entry: Cc1cc(C)c2c(c1)NP(=S)(c1ccccc1)N2 (centres undefined) 7.37

Next entry: CN(C)C(=O)Oc1ccc2c(c1)O/C(=C\c1ccccc1)C2=O 46.6
